- experiment: qHTS RealTime-Glo MT Cell Viability Assay in HEK293 cells - 32 hour (AID 1224868); note: potency is the fitted concentration of half-maximal effect; nearly all actives have a fitted effect of over 50% in size
- run_conditions: RealTime-Glo luminescence; series mostly up to 76.8 µM
Records with an inconclusive call do not appear. Calls of active or inactive are those of the source. Calls come from the whole dose curve; as a rule, active = well fitted cell-killing curve with a large enough effect in the repeat runs; inconclusive = weak or mixed curves, or effect the other way; inactive = flat fitted curve, though single readings scatter.
In this section, each of the compounds is paired with its reported Potency.
attribute_measured: Potency

                              smiles_record  observed_measurement
0             OCC(c1ccc(Cl)cc1)c1ccc(Cl)cc1      34.7 µM (active)
1  Cc1cc(C)c(C(=O)P(=O)(c2ccccc2)c2ccccc2)c(C)c1        49 µM (active)
2    CCOC(=O)C(O)(c1ccc(Cl)cc1)c1ccc(Cl)cc1      22.1 µM (active)
3  CO/C=C(/C(=O)OC)c1ccccc1Oc1cc(Oc2ccccc2C#N)ncn1      23.3 µM (active)

---

- measurement_target: Cytochrome P450 2C19 (Homo sapiens)
- experiment: Cytochrome P450 Family 2 Subfamily C Member 19 (CYP2C19) small molecule antagonists: luciferase reporter qHTS assay (AID 1671197); note: nearly all actives have a fitted effect of over 65% in size
- run_conditions: P450-Glo CYP2C19 enzyme, luciferin luminescence, 1 h; series mostly up to 115 µM
Inconclusive results are not listed. The source made the active and inactive calls. The call rests on the fitted dose curve; in most records, active means well fitted inhibition curve with a large enough effect in the repeat runs; inconclusive means weak or mixed curves; inactive means no such curve, though single readings can be large or run the other way.
Outcomes: active, inactive

>>> print(df.to_string())
                           smiles_record  assigned_label
0  O=C(Nc1ccccc1-c1ccc(Cl)cc1)c1cccnc1Cl          active
1                Nc1ccc([N+](=O)[O-])cc1          active
2                  Clc1ccccc1-c1ccccc1Cl        inactive
3               Cc1ccc2nc3sc(=O)sc3nc2c1          active

---

- experiment: qHTS assay to test for compound auto fluorescence at 460 nm (blue) in HEK293 cell free culture (AID 720681)
- run_conditions: cell-free medium, autofluorescence 405/460 nm (blue); series mostly up to 46 µM
- From the text: U.S. Tox21 Program National Center for Advancing Translational Sciences [NCATS] NIH Chemical Genomics Center [NCGC] U.S. Environmental Protection Agency [EPA] National Institutes of Environmental Health Sciences [NIEHS] National Toxicology Program [NTP] U.S. Food and Drug Administration [FDA] Tox21 Assay Overview: Compound auto fluorescence often interferes with screening of the compound library against various biological targets and signaling pathways. […] This assay includes the blue fluorescence data. […]
Active and inactive are the calls of the source. Calls follow the shape of the dose curve; as a rule, active = well fitted curve in the direction sought with a large enough effect in the repeat runs; inconclusive = weak or mixed curves; inactive = flat fitted curve, though single readings scatter.
attribute_measured: outcome

>>> print(df.to_string())
                                    molecule  observed_measurement
 0            CNC(=O)Oc1ccccc1C(=O)Nc1ccccc1              inactive
 1  CCCCCCC(=O)O[C@H]1CC[C@H]2[C@@H]3CC[C@H]4CC(=O)C=C(C)[C@]4(C)[C@H]3CC[C@]12C              inactive
 2  OC(c1ccccc1)(c1ccccc1)C1CN2CCC1CC2 (configuration not stated)              inactive
 3               O=P(O)(O)C(Cl)(Cl)P(=O)(O)O              inactive
 4             CN(C)[C@H](Cc1ccccc1)c1ccccc1              inactive
 5  C=CCC1(C(C)CCC)C(=O)N=C(S)NC1=O (configuration not stated)              inactive
 6                   C[C@@H](Cc1ccccc1)N(C)C              inactive
 7                COc1ccc(OC)c(C[C@H](C)N)c1              inactive
 8                    CCN(CC)/[N+]([O-])=N/O              inactive
 9  CC1COC(Cn2cncn2)(c2ccc(Oc3ccc(Cl)cc3)cc2Cl)O1 (configuration not stated)              inactive
10  C#CCN1CC(=O)N(COC(=O)C2C(C=C(C)C)C2(C)C)C1=O (configuration not stated)              inactive
11        O=[N+]([O-])c1c(Cl)c(Cl)cc(Cl)c1Cl              inactive

---

- experiment: qHTS assay to identify small molecule that activate the aryl hydrocarbon receptor (AhR) signaling pathway - cell viability counter screen (AID 743086); note: nearly all actives have a fitted effect of over 45% in size
- run_conditions: HepG2-AhR-luc viability, CellTiter-Fluor, 24 h; series mostly up to 70.3 µM
Results filed as inconclusive are left out. Activity calls are given as the source filed them. Calls follow the shape of the dose curve; as a rule, active = well fitted cell-killing curve with a large enough effect in the repeat runs; inconclusive = weak or mixed curves, or effect the other way; inactive = flat fitted curve, though single readings scatter.
Labels: active, inactive

compound	assigned_label
Clc1ccc2c(c1)C(c1ccccc1)=NCc1nncn1-2	inactive
C=CCC1(C(C)CCC)C(=O)N=C(S)NC1=O (stereo unspecified)	inactive
CCCCCN(C)CCC(O)(P(=O)(O)O)P(=O)(O)O	inactive
CCON=O	inactive
CC1(C)[C@H](C=C(Cl)Cl)[C@H]1C(=O)OCc1c(F)c(F)cc(F)c1F	inactive
COc1ccc(OC)c(C[C@H](C)N)c1	inactive
[S]=[Sb](=[S])[S][Sb](=[S])=[S]	inactive
c1ccccc1	inactive
C[N+]1(C)[C@@H]2CC[C@H]1CC(OC(=O)c1c[nH]c3ccccc13)C2 (stereo partly specified)	inactive
O=C(NC(=O)c1c(F)cccc1F)Nc1ccc(Cl)c(Oc2ncc(C(F)(F)F)cc2Cl)c1	inactive
CCCCCc1cc(O)c2c(c1)OC(C)(C)[C@@H]1CCC(C)=C[C@@H]21	inactive
C=CCC1([C@@H](C)CCC)C(=O)NC(=O)NC1=O	inactive
COC(=O)[C@H]1[C@@H](OC(=O)c2ccccc2)C[C@@H]2CC[C@H]1N2C	inactive
NC1=NC(=O)N2CC12 (stereo unspecified)	inactive
Cc1nnc2n1-c1sc(Br)cc1C(c1ccccc1Cl)=NC2	inactive
C[C@H]1CC[C@]2(NC1)O[C@H]1C[C@H]3[C@@H]4CC[C@H]5C[C@@H](O[C@@H]6O[C@H](CO)[C@H](O[C@@H]7O[C@H](CO)[C@@H](O)[C@H](O[C@@H]8OC[C@@H](O)[C@H](O)[C@H]8O)[C@H]7O[C@@H]7O[C@H](CO)[C@@H](O)[C@H](O)[C@H]7O)[C@H](O)[C@H]6O)CC[C@]5(C)[C@H]4CC[C@]3(C)[C@H]1[C@@H]2C	active
CN(C)[C@H](Cc1ccccc1)c1ccccc1	inactive
NCC[C@H](O)C(=O)N[C@@H]1C[C@H](N)[C@@H](O[C@H]2O[C@H](CN)[C@@H](O)[C@H](O)[C@H]2N)[C@H](O[C@@H]2O[C@H](CO)[C@@H](O)[C@H]2O)[C@H]1O	inactive
O=C1CCO1	inactive
c1cc2c(c(NC3=NCCN3)c1)CCCC2	inactive
O=C1C=C2C=C[C@@H]3C[C@@]2(O1)[C@H]1CCCCN31	active

---

- measurement_target: Androgen receptor (Homo sapiens) (UniProt P10275)
- Sequence (P10275 whole entry, looked up): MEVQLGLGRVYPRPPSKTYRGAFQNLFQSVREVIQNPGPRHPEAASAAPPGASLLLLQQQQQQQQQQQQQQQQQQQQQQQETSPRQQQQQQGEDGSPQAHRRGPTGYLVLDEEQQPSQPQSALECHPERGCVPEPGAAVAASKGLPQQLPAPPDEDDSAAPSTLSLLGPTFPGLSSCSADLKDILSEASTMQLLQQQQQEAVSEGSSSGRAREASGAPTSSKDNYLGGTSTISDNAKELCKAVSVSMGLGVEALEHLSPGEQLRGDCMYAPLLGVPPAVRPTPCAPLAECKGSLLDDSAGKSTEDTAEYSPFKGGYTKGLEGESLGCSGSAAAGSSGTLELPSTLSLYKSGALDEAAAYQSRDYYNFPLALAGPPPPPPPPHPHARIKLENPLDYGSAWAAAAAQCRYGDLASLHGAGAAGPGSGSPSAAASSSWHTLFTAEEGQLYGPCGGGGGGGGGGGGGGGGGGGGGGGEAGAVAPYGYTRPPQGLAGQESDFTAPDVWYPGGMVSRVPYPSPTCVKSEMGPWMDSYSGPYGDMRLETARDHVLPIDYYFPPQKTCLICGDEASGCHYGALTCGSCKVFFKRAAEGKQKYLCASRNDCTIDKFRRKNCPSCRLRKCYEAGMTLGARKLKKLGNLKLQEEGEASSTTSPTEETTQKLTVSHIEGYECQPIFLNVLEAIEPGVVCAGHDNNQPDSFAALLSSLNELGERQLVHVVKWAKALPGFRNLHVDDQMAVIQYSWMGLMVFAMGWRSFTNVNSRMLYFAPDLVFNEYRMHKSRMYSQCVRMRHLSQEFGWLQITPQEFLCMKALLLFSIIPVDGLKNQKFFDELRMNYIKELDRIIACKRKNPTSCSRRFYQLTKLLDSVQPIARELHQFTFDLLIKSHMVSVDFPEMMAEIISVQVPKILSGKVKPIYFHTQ
- experiment: qHTS assay to identify small molecule antagonists of the androgen receptor (AR) signaling pathway using the MDA cell line (AID 743042; note: nearly all actives have a fitted effect of over 55% in size)
- run_conditions: MDA-kb2 AR-luc, MMTV luciferase, R1881 antagonist, 16 h; series mostly up to 70.3 µM
Inconclusive results are not listed. Calls of active or inactive are those of the source. Calls follow the shape of the dose curve; as a rule, active = well fitted inhibition curve with a large enough effect in the repeat runs; inconclusive = weak or mixed curves, or effect the other way; inactive = no such curve, though single readings can be large or run the other way.
Possible outcomes: active, inactive

smiles_record	assigned_label
Cc1ccc(N(SC(F)(Cl)Cl)S(=O)(=O)N(C)C)cc1	active
C[C@@H](N)C(=O)c1ccccc1	inactive
CNC(=O)Oc1ccccc1C(=O)Nc1ccccc1	inactive
CO[C@H]1[C@@H](O)C[C@H](O[C@H]2[C@@H](O)C[C@H](O[C@H]3[C@@H](O)C[C@H](O[C@H]4CC[C@@]5(C)[C@H](CC[C@@H]6[C@@H]5C[C@@H](O)[C@]5(C)[C@@H](C7=CC(=O)OC7)CC[C@]65O)C4)O[C@@H]3C)O[C@@H]2C)O[C@@H]1C	active
Cc1nnc2n1-c1sc(Br)cc1C(c1ccccc1Cl)=NC2	inactive
CCCCCN(C)CCC(O)(P(=O)(O)O)P(=O)(O)O	inactive

---

- measurement_target: Aromatase (Homo sapiens)
- experiment: qHTS assay to identify aromatase inhibitors (AID 743083); note: nearly all actives have a fitted effect of over 55% in size
- run_conditions: MCF-7 aro ERE, testosterone-driven ERE luciferase, 24 h; series mostly up to 70.3 µM
Inconclusive results are not listed. The source made the active and inactive calls. Calls follow the shape of the dose curve; as a rule, active = well fitted inhibition curve with a large enough effect in the repeat runs; inconclusive = weak or mixed curves; inactive = no such curve, though single readings can be large or run the other way.
Possible outcomes: class 1 = active, class 0 = inactive

molecule	measurement_target	assigned_label
COc1cc2c(cc1OC)[C@@H]1CC(=O)[C@@H](CC(C)C)CN1CC2	Aromatase (Homo sapiens)	class 0
Nc1ccc2c3c(cccc13)-c1ccccc1-2	Aromatase (Homo sapiens)	class 0
CN[C@@]1(c2ccccc2Cl)CCCCC1=O	Aromatase (Homo sapiens)	class 0
CO/C=C(/C(=O)OC)c1ccccc1Oc1cc(Oc2ccccc2C#N)ncn1	Aromatase (Homo sapiens)	class 1
C=C[C@H]1CN2CC[C@H]1C[C@@H]2[C@@H](O)c1ccnc2ccccc12	Aromatase (Homo sapiens)	class 0
Brc1ccc(-c2ccccc2)cc1	Aromatase (Homo sapiens)	class 0
CCCCCCCCCc1ccc(OCCOCCO)cc1	Aromatase (Homo sapiens)	class 1
COc1ccc(C)cc1N	Aromatase (Homo sapiens)	class 0
Cc1ccc(O)cc1C	Aromatase (Homo sapiens)	class 0
CNC(=O)OCC[N+](C)(C)C	Aromatase (Homo sapiens)	class 0
Cc1nnc2n1-c1ccc(Cl)cc1C(c1ccccc1)=NC2	Aromatase (Homo sapiens)	class 0
CN1C(=O)CC(=O)N(c2ccccc2)c2cc(Cl)ccc21	Aromatase (Homo sapiens)	class 0
CCCCCN(C)CCC(O)(P(=O)(O)O)P(=O)(O)O	Aromatase (Homo sapiens)	class 0
O=C(CCl)c1ccc(Oc2ccc(C(=O)CCl)cc2)cc1	Aromatase (Homo sapiens)	class 0
CCN(CC)/[N+]([O-])=N/O	Aromatase (Homo sapiens)	class 0
CC1(C)S[C@@H]2[C@H](N)C(=O)N2[C@H]1C(=O)O	Aromatase (Homo sapiens)	class 0
Fc1c(F)c(F)c(Br)c(F)c1F	Aromatase (Homo sapiens)	class 0
Clc1ccc(Cl)c(Cl)c1Cl	Aromatase (Homo sapiens)	class 0
O=C(O)CCCO	Aromatase (Homo sapiens)	class 0
COC(=O)[C@H]1[C@@H](OC(=O)c2ccccc2)C[C@@H]2CC[C@H]1N2C	Aromatase (Homo sapiens)	class 0
Nc1cccc([N+](=O)[O-])c1	Aromatase (Homo sapiens)	class 0
CCOC(=O)C1(c2ccccc2)CCCN(C)CC1 (configuration not stated)	Aromatase (Homo sapiens)	class 0
O=C1OC(=O)c2c(Br)c(Br)c(Br)c(Br)c21	Aromatase (Homo sapiens)	class 0
c1ccc2c(c1)ccc1ncccc12	Aromatase (Homo sapiens)	class 0
CN1CCCC(=C(c2cccs2)c2cccs2)C1	Aromatase (Homo sapiens)	class 0
C[C@]12CCC(=O)C=C1C=C[C@@H]1[C@@H]2CC[C@@]2(C)[C@H]1CC[C@@]2(O)CCC(=O)O	Aromatase (Homo sapiens)	class 0
COc1ccc2c3c1O[C@H]1[C@@H](O)C=C[C@H]4[C@@H](C2)NCC[C@@]341	Aromatase (Homo sapiens)	class 0
COc1ccccc1[N+](=O)[O-]	Aromatase (Homo sapiens)	class 0
CNC(C)CC1CCCCC1 (configuration not stated)	Aromatase (Homo sapiens)	class 0
COc1cc([C@@H]2c3cc4c(cc3[C@H](O)[C@H]3COC(=O)[C@H]23)OCO4)cc(OC)c1OC	Aromatase (Homo sapiens)	class 0
C[N+]1([O-])[C@@H]2CC[C@H]1CC(OC(=O)C(CO)c1ccccc1)C2 (some centres not stated)	Aromatase (Homo sapiens)	class 0
C[C@]12C[C@H]3S[C@H]3C[C@@H]1CC[C@@H]1[C@@H]2CC[C@]2(C)[C@@H](O)CC[C@@H]12	Aromatase (Homo sapiens)	class 0
CCNCC(O)c1cccc(O)c1 (configuration not stated)	Aromatase (Homo sapiens)	class 0
C=C[C@H]1CN2CC[C@H]1C[C@H]2[C@H](OC(=O)OCC)c1ccnc2ccc(OC)cc12	Aromatase (Homo sapiens)	class 0
Cc1cccc(C)c1[N+](=O)[O-]	Aromatase (Homo sapiens)	class 0
CC(=O)OCC(=O)[C@H]1CC[C@H]2[C@@H]3CC[C@H]4C[C@H](O)CC[C@]4(C)[C@H]3C(=O)C[C@]12C	Aromatase (Homo sapiens)	class 0
[H+].[H+].[Hg+2].[O-]B([O-])[O-].[c-]1ccccc1	Aromatase (Homo sapiens)	class 1
[S]=[Sb](=[S])[S][Sb](=[S])=[S]	Aromatase (Homo sapiens)	class 0
C=CCOC(=O)c1ccccc1C(=O)OCC=C	Aromatase (Homo sapiens)	class 0
CCC1(c2ccccc2)C(=O)NC(=O)N(C)C1=O (configuration not stated)	Aromatase (Homo sapiens)	class 0
CCC1(C)CC(=O)NC(=O)C1	Aromatase (Homo sapiens)	class 0
CC(=O)OC1CN2CCC1CC2 (configuration not stated)	Aromatase (Homo sapiens)	class 0
CC(=O)[C@H]1CC[C@H]2[C@@H]3CC[C@@H]4C[C@H](O)CC[C@]4(C)[C@H]3CC[C@]12C	Aromatase (Homo sapiens)	class 0
Brc1c2ccccc2cc2ccccc12	Aromatase (Homo sapiens)	class 0
C[C@H]1CC[C@]2(NC1)O[C@H]1C[C@H]3[C@@H]4CC[C@H]5C[C@@H](O[C@@H]6O[C@H](CO)[C@H](O[C@@H]7O[C@H](CO)[C@@H](O)[C@H](O[C@@H]8OC[C@@H](O)[C@H](O)[C@H]8O)[C@H]7O[C@@H]7O[C@H](CO)[C@@H](O)[C@H](O)[C@H]7O)[C@H](O)[C@H]6O)CC[C@]5(C)[C@H]4CC[C@]3(C)[C@H]1[C@@H]2C	Aromatase (Homo sapiens)	class 1
CN[C@@H](C)Cc1ccccc1	Aromatase (Homo sapiens)	class 0
CC1COC(Cn2cncn2)(c2ccc(Oc3ccc(Cl)cc3)cc2Cl)O1 (configuration not stated)	Aromatase (Homo sapiens)	class 1
